- Tested on: native Nav currents in DRG neurons
- method: whole-cell patch-clamp, native sodium currents in DRG neurons
- Format: cell-based, mouse
- details: Mus musculus, DRG neuron; n = 5
propertyLabel: pIC50
pIC50 here: minus log base 10 of the concentration, concentration in moles per litre.

Req: Quick one: pIC50 of COc1ccc([C@H]2CC(=O)c3c(O)cc(OC)cc3O2)cc1 [(−)-NRG-DM, (−)-naringenin 4′,7-dimethyl ether] ?
Resp: 4.46
